Data provenance: patent US20240158439A1

- Measured on: HLA-DRB1*15:01 (Homo sapiens, UniProt P01903+P01911)
- Construct: endogenous in cells; host or cells: EBV homozygous cell lines (human)
- Protocol description: HLA II binding assay (competitive, biotinylated reference peptide)
- Measurement setup: Table 2, DRB1*15:01 binding; unit inferred, nM; read-out: Avg IC50
*1 amine or outer side, *2 acyl side, *3 side chain or, on linkers, in order; H or OH if unused. Where a SMILES comes first, the peptide text is derived from it. [ ]: non-standard residue; d: D form. Ala(indol-4-yl) = N[C@@H](Cc1cccc2[nH]ccc12)C(=O)O; Phe(3,4-Cl2) = N[C@@H](Cc1ccc(Cl)c(Cl)c1)C(=O)O; X4 = O=C([C@H](Cc1cccc2[nH]ncc12)N[*:1])[*:2]; Ala(4-thiazolyl) = N[C@@H](Cc1cscn1)C(=O)O; X3 = Nc1nc(C[C@H](N[*:1])C(=O)[*:2])c[nH]1; Bta = N[C@@H](Cc1csc2ccccc12)C(=O)O; Tic = O=C(O)[C@@H]1Cc2ccccc2CN1; Cit = NC(=O)NCCC[C@H](N)C(=O)O; Chg = N[C@H](C(=O)O)C1CCCCC1; βAla = NCCC(=O)O; Sar = CNCC(=O)O
Task for the reader: assign each of the following compounds its reported IC50.
Give bare numbers, in nM.

CC(C)[C@H](NC(=O)CCN)C(=O)N[C@H](C(=O)N[C@@H](Cc1ccccc1)C(=O)N[C@@H](Cc1ccccc1)C(=O)N[C@@H](Cc1ccccc1)C(N)=O)C1CCCCC1 [PV-782] (H-[βAla]V[Chg]FFF-NH2)    150
CC(=O)N[C@H](C(=O)N[C@@H](CCCNC(=N)N)C(=O)N1Cc2ccccc2C[C@H]1C(=O)N[C@@H](Cc1csc2ccccc12)C(N)=O)C1CCCCC1 [PV-477] (Ac-[Chg]R[Tic][Bta]-NH2)    82
CC(=O)N[C@H](C(=O)N[C@H](C(=O)N[C@@H](Cc1c[nH]c(N)n1)C(=O)N1Cc2ccccc2C[C@H]1C(=O)N[C@@H](Cc1ccccc1)C(N)=O)C1CCCCC1)C(C)C [PV-839] (Ac-V[Chg][X3][Tic]F-NH2)    25
CNCC(=O)N[C@H](C(=O)N[C@H](C(=O)N[C@@H](CCCNC(N)=O)C(=O)N1Cc2ccccc2C[C@H]1C(=O)N[C@@H](Cc1ccccc1)C(N)=O)C1CCCCC1)C(C)C [PV-662] (H-[Sar]V[Chg][Cit][Tic]F-NH2)    4
CC(=O)N[C@H](C(=O)N[C@@H](CCCNC(=N)N)C(=O)N1Cc2ccccc2C[C@H]1C(=O)N[C@@H](Cc1cccc2[nH]ccc12)C(N)=O)C1CCCCC1 [PV-476] (Ac-[Chg]R[Tic][Ala(indol-4-yl)]-NH2)    30.1

For every item below, please supply its IC50.
1. CC(=O)N[C@H](C(=O)N[C@H](C(=O)N[C@@H](CCCNC(=N)N)C(=O)N1Cc2ccccc2C[C@H]1C(=O)N[C@@H](Cc1cccc2[nH]ncc12)C(N)=O)C1CCCCC1)C(C)C [PV-676] (Ac-V[Chg]R[Tic][X4]-NH2)
2. CC(=O)N[C@H](C(=O)N[C@H](C(=O)N[C@@H](CCCNC(=N)N)C(=O)N1Cc2ccccc2C[C@H]1C(=O)N[C@@H](Cc1ccc(Cl)c(Cl)c1)C(N)=O)C1CCCCC1)C(C)C [PV-593] (Ac-V[Chg]R[Tic][Phe(3,4-Cl2)]-NH2)

1. 3
2. 4.1

For every item below, please supply its IC50.
1. CC(C)[C@H](NC(=O)CCN)C(=O)N[C@H](C(=O)N[C@@H](Cc1cscn1)C(=O)N1Cc2ccccc2C[C@H]1C(=O)N[C@@H](Cc1ccccc1)C(N)=O)C1CCCCC1 [PV-833] (H-[βAla]V[Chg][Ala(4-thiazolyl)][Tic]F-NH2)
2. CNCC(=O)N[C@H](C(=O)N[C@H](C(=O)N[C@@H](CCCNC(=N)N)C(=O)N1Cc2ccccc2C[C@H]1C(=O)N[C@@H](Cc1ccccc1)C(N)=O)C1CCCCC1)C(C)C [PV-636] (H-[Sar]V[Chg]R[Tic]F-NH2)

[17, 3]

###

- Protocol description: Mouse pharmacokinetics/metabolism study
- Format: in vivo, C57BL/6J mice
- Measurement setup: parent compound, 10 mg/kg IP, 0.25 hr
Where a SMILES comes first, the peptide text is derived from it. [ ]: non-standard residue; d: D form. Tic = O=C(O)[C@@H]1Cc2ccccc2CN1; Chg = N[C@H](C(=O)O)C1CCCCC1
Assay endpoint: Mean Plasma Concentration 0.25 hr (ng/mL)
Give bare numbers, in ng/mL.

What does the data say about its Mean Plasma Concentration 0.25 hr? Entry: CC(=O)N[C@H](C(=O)N[C@H](C(=O)N[C@@H](CCCNC(=N)N)C(=O)N1Cc2ccccc2C[C@H]1C(=O)N[C@@H](Cc1ccccc1)C(N)=O)C1CCCCC1)C(C)C [PV-267, Ac-V-(Chg)-R-(Tic)-F—NH2] (Ac-V[Chg]R[Tic]F-NH2)
275

###

- Measured on: HLA-DRB1*15:01 (Homo sapiens, UniProt P01903+P01911)
- Construct: endogenous in cells; host or cells: EBV homozygous cell lines (human)
- Protocol description: HLA II binding assay (competitive, biotinylated reference peptide)
- Measurement setup: Table 2, DRB1*15:01 binding; unit inferred, nM; read-out: Avg IC50
*1 amine or outer side, *2 acyl side, *3 side chain or, on linkers, in order; H or OH if unused. Where a SMILES comes first, the peptide text is derived from it. [ ]: non-standard residue; d: D form. The star is where a group is joined. Trp(1-Me) = Cn1cc(C[C@H](N)C(=O)O)c2ccccc21; X1 = O=C([C@H](Cc1ccc2ccccc2n1)N[*:1])[*:2]; Gly(cPent) = N[C@H](C(=O)O)C1CCCC1; Igl = N[C@H](C(=O)O)C1Cc2ccccc2C1; hCit = NC(=O)NCCCC[C@H](N)C(=O)O; Tic = O=C(O)[C@@H]1Cc2ccccc2CN1; Chg = N[C@H](C(=O)O)C1CCCCC1; NHPhenethyl = c1ccc(CCN*)cc1; βAla = NCCC(=O)O
Binning of IC50 into classes: interval 1 (below 4 nM), interval 2 (4 nM to below 200 nM), interval 3 (200 nM or more)

Reference set, count: 10
CC(=O)N[C@H](C(=O)N[C@H](C(=O)N[C@@H](CCCNC(=N)N)C(=O)N1Cc2ccccc2C[C@H]1C(=O)N[C@@H](Cc1ccccc1)C(N)=O)C1Cc2ccccc2C1)C(C)C [PV-594] (Ac-V[Igl]R[Tic]F-NH2)    interval 2
CC(=O)N[C@H](C(=O)N[C@H](C(=O)N[C@@H](CCCNC(=N)N)C(=O)N1Cc2ccccc2C[C@H]1C(=O)N[C@@H](Cc1ccccc1)C(N)=O)C1CCCC1)C(C)C [PV-573] (Ac-V[Gly(cPent)]R[Tic]F-NH2)    interval 2
CC(C)[C@H](NC(=O)CCN)C(=O)N[C@H](C(=O)N[C@@H](CCCNC(=N)N)C(=O)N1Cc2ccccc2C[C@H]1C(=O)N[C@@H](Cc1ccccc1)C(N)=O)C1CCCCC1 [PV-638] (H-[βAla]V[Chg]R[Tic]F-NH2)    interval 1
CC(=O)N[C@H](C(=O)N[C@@H](CCCNC(=N)N)C(=O)N[C@@H](Cc1ccccc1)C(=O)N[C@@H](Cc1ccccc1)C(N)=O)C(C)C [PV-119, reference compound] (Ac-VRFF-NH2)    interval 3
CC(=O)N[C@H](C(=O)N[C@H](C(=O)N[C@@H](CCCNC(=N)N)C(=O)N1Cc2ccccc2C[C@H]1C(=O)N[C@@H](Cc1c[nH]c2ccccc12)C(N)=O)C1CCCCC1)C(C)C [PV-579] (Ac-V[Chg]R[Tic]W-NH2)    interval 1
CC(=O)N[C@H](C(=O)N[C@@H](CCCNC(=N)N)C(=O)N1Cc2ccccc2C[C@H]1C(=O)N[C@@H](Cc1cn(C)c2ccccc12)C(N)=O)C1CCCCC1 [PV-508] (Ac-[Chg]R[Tic][Trp(1-Me)]-NH2)    interval 3
CC(=O)N[C@H](C(=O)N[C@H](C(=O)N[C@@H](CCCCNC(N)=O)C(=O)N1Cc2ccccc2C[C@H]1C(=O)N[C@@H](Cc1ccccc1)C(N)=O)C1CCCCC1)C(C)C [PV-640] (Ac-V[Chg][hCit][Tic]F-NH2)    interval 2
CC(=O)N[C@H](C(=O)N[C@H](C(=O)N[C@@H](C)C(=O)N1Cc2ccccc2C[C@H]1C(=O)N[C@@H](Cc1ccccc1)C(N)=O)C1CCCCC1)C(C)C [PV-560] (Ac-V[Chg]A[Tic]F-NH2)    interval 2
CC(=O)N[C@H](C(=O)N[C@H](C(=O)N[C@@H](CCCNC(=N)N)C(=O)N1Cc2ccccc2C[C@H]1C(=O)NCCc1ccccc1)C1CCCCC1)C(C)C [PV-708, reference compound] (Ac-V[Chg]R[Tic]-NHPhenethyl)    interval 3
CC(=O)N[C@H](C(=O)N[C@H](C(=O)N[C@@H](CCCNC(=N)N)C(=O)N1Cc2ccccc2C[C@H]1C(=O)N[C@@H](Cc1ccc2ccccc2n1)C(N)=O)C1CCCCC1)C(C)C [PV-617, reference compound] (Ac-V[Chg]R[Tic][X1]-NH2)    interval 3

# evaluate next
Tag the class for CC(C)[C@H](NC(=O)CN)C(=O)N[C@H](C(=O)N[C@@H](CCCNC(=N)N)C(=O)N1Cc2ccccc2C[C@H]1C(=O)N[C@@H](Cc1ccccc1)C(N)=O)C1CCCCC1 [PV-633] (H-GV[Chg]R[Tic]F-NH2)
interval 1
